The reported measurements were obtained from ChEMBL document CHEMBL3727343.

Target: Olfactory receptor 5K1 (Homo sapiens) (UniProt Q8NHB7)
Sequence (Q8NHB7 whole entry): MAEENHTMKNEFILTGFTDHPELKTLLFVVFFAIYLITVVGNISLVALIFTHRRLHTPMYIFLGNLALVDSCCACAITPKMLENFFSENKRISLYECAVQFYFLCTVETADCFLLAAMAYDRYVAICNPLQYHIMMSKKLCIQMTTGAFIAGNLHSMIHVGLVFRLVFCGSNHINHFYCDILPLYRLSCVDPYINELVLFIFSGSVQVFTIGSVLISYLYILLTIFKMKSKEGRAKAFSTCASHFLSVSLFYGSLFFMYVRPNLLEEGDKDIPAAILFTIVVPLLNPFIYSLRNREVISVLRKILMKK
Test: Antagonist activity at human OR5K1 expressed in HEK293 cells assessed as inhibition of 2,6-dimethylpyrazine-induced response at 100 uM by luciferase reporter gene assay
Type: functional, cell-based
readoutName: inhibition

Solved cases below.
Give its inhibition value. Item: C=C(OCC)C1C(C)(C)CC(=O)CC1(C)C
> 50%

Lookup CCCCCCOC(=O)c1ccccc1O
> 40%

Lookup O=C1CCCCC/C=C\CCCCCCCCO1
> 50%

Lookup CC(C)=CCC/C(C)=C/CO
> 40%

Lookup CC1=CC(C)C(C)C(C=O)C1 (centres undefined)
> 40%

Please go through the list and note inhibition for each compound.
1. CC(C)[C@@H]1CC[C@@H](C)C[C@H]1O
2. OCCCCCCc1ccccc1

1: > 50%; 2: > 40%
